# Assay protocol: xn = mol fraction of the nth substance listed
# Condition summary: 318.15 K; 101 kPa; Liquid; x1 = 0.3
Measured attribute: mass density (kg/m3)

INSERT INTO assay_data (molecule, measured_attribute, uom, observed) VALUES
  ('CCCCCC(=O)OCC [ethyl hexanoate] + CCO', 'mass density', 'kg/m3', 809.89),
  ('CCCCCCCC(=O)OCC [ethyl octanoate] + CCO', 'mass density', 'kg/m3', 811.88),
  ('CCCC(=O)OCCC(C)C [3-methylbutyl butanoate] + CCO', 'mass density', 'kg/m3', 807.86),
  ('CCOC(=O)Cc1ccccc1 [ethyl phenylacetate] + CCO', 'mass density', 'kg/m3', 898.52),
  ('CCOC(=O)c1ccccc1 [ethyl benzoate] + CCO', 'mass density', 'kg/m3', 900.15);

Source listed as the NIST ThermoML archive (doi:10.1021/je050389b).
